system: OVCAR-3; test: NCI tumour cell line growth inhibition, 48 h
Calls of active or inactive are those of the source. Cut-off read from the data, not from the text of the source: active = GI50 up to about 1.1 µM and inactive = higher.

| compound | target-entity | GI50 |
| --- | --- | --- |
| O=P(O)(CN1CCN(CP(=O)(O)c2ccccc2)CCN(CP(=O)(O)c2ccccc2)CC1)c1ccccc1 | OVCAR-3 | 56.6 µM (inactive) |
| CN(C)C(=O)Oc1ccc(-c2cn3cc(NC(=O)c4ccccc4)ccc3n2)cc1 | OVCAR-3 | 53.7 µM (inactive) |
| Nc1nc2ncn(CC(O)COC(=O)c3ccccc3)c2c(=O)[nH]1 (stereo not given) | OVCAR-3 | > 100 µM (inactive) |
| CC(C)n1c2c(c3ccccc3c1=O)C(=O)c1ccccc1-2 | OVCAR-3 | > 100 µM (inactive) |
| C=CCOc1ccccc1/N=N/C(C#N)=N\Nc1ccccc1OCC=C | OVCAR-3 | > 100 µM (inactive) |

----------
system: ACHN; assay: NCI tumour cell line growth inhibition, 48 h
Active and inactive are the calls of the source. Rule as the data show it: active = GI50 up to about 1.1 µM and inactive = higher.
// reported GI50 for each item listed

| molecule | GI50 |
| --- | --- |
| CC(C)OC(=O)NNc1c(Cl)cc(Cl)cc1Cl | > 100 µM (inactive) |
| CC(C)(C)OC(=O)C1CCC/C1=N/Nc1ccc([N+](=O)[O-])cc1[N+](=O)[O-] (stereo unspecified) | 45.3 µM (inactive) |
| Nc1ccccc1/C=C\c1ccccc1 | > 100 µM (inactive) |
| C=CCOc1ccccc1/N=N/C(C#N)=N\Nc1ccccc1OCC=C | > 100 µM (inactive) |
| O=P(O)(CN1CCN(CP(=O)(O)c2ccccc2)CCN(CP(=O)(O)c2ccccc2)CC1)c1ccccc1 | > 100 µM (inactive) |
| CC1=C[C@H]2C[C@@]3(C)O[C@@H]([C@]4(C)CC[C@H]([C@@H](C)C(=O)O)OO4)CC3C(C)(C)[C@H]2CC1 (stereo partly specified) | 1.57 µM (inactive) |

----------
test system: SN12C; test: NCI tumour cell line growth inhibition, 48 h
Active and inactive are the calls of the source. Rule as the data show it: active = GI50 up to about 1.1 µM and inactive = higher.
Outcomes: active, inactive

| molecule | classification |
| --- | --- |
| Cc1ccc(S(=O)(=O)N2CCCCN(S(=O)(=O)c3ccc(C)cc3)Cc3ccccc3OCCOCCOc3c4cccc3Cc3cccc5c3OCCOCCOc3ccccc3CN(S(=O)(=O)c3ccc(C)cc3)CCCN(S(=O)(=O)c3ccc(C)cc3)Cc3ccccc3OCCOCCOc3c(cccc3C4)Cc3cccc(c3OCCOCCOc3ccccc3C2)C5)cc1 | inactive |
| CO[C@H]1[C@@H](O)[C@@H](C)O[C@@H](O[C@H]2CC[C@@]3(C)[C@H](CC[C@@H]4[C@@H]3CC[C@]3(C)[C@@H](C5=CC(=O)OC5)[C@@H](OC(C)=O)C[C@]43O)C2)[C@@H]1O [NERITALOSIDE] | active |
| CC1CCc2c(sc3ncnc(N/N=C/c4ccc(Cl)cc4)c23)C1 (configuration not stated) | inactive |
| O=C(O)C1CCCN1C(=O)c1cc(Cl)ccn1 (configuration not stated) | inactive |
| CNC(=O)CN(C)C(=O)CCC(=O)N(C)C | inactive |
| CC12CCC(C(Br)(Br)C1=O)C2(C)C (configuration not stated) | active |
| C=C(C)C12OC3(c4ccccc4)OC1C1C4OC4(CO)C(O)C4(O)C(=O)C(C)=CC4C1(O3)C(C)C2OC(=O)/C=C/C=C/c1ccccc1 (configuration not stated) | active |
